- experimental.system: scFv M6P-1
- method.notes: ELISA inhibition study: binding of scFv M6P-1 to immobilized PMP-BSA
- test.conditions: scFv 0.6 μg/ml preincubated 1 h at 37° C. with 0.01 to 100 mM inhibitor; 45 pmol/cup PMP-BSA; read-out: 50% inhibition (IC50 value) of scFv M6P-1 binding to PMP-BSA
Consider the following molecules; for each one, report its pIC50.
Note on pIC50: it is the negative log10 of concentration, concentration in mol/L.

Lookup: Which pIC50 is reported for this molecule? O=C[C@@H](O)[C@@H](O)[C@H](O)[C@H](O)COP(=O)(O)O [Man6P, mannose 6-phosphate]
Found: 2.64

Lookup: Record: O=P(O)(O)OC[C@@]1(O)OC[C@@H](O)[C@@H](O)[C@@H]1O [Fru1P, β-D-fructopyranose-1-phosphate]
Found: 2.96

Just for reference, patent US20110201023A1 is where these values come from.
